- Tested on: HCV genotype 1b bicistronic replicon (I389-Neo/NS3-3'/5.1)
- method: genotype 1b HCV-SGR replicon model, stable Huh7.5 cells, RT-qPCR
- Assay type: cell-based, hepatitis C virus
- test-parameters: 3 days
pEC50: −log10 of the molar value.
pEC50 vs 5: at or above is Criterion met, below is Criterion not met.

For orientation, consider the following solved cases.
compound: Nc1ccc(CNC(=O)NCC(=O)N2CCCC2c2ccccc2Br)cc1 (stereo not drawn)
assigned-label: Criterion met

compound: CSc1ccccc1C1CCCN1C(=O)C(NC(=O)NCc1ccc(N)cc1)c1ccccc1 (stereo not drawn)
assigned-label: Criterion met

compound: CSCCC(NC(=O)NCc1ccc(N)cc1)C(=O)N1CCCC1c1ccccc1SC (stereo not drawn)
assigned-label: Criterion met

Attention now shifts to the item below.
Exercise: Hi, just wondering whether COc1ccccc1C1CCCN1C(=O)CNC(=O)NCc1ccc(N)cc1 (stereo not drawn) shows pEC50 of 5 or higher.
Key: Criterion not met
